experiment: Solubility in PBS; type: physicochemical
experimental_endpoint: Solubility (µM)
Numbers only, in µM.

Example entries and their recorded answers appear below.
[[record]]
compound = "CC(=O)N1CCC[C@]12CC=CCCCC1(CCCC=CCCCOC(=O)N3CC[C@@](C(=O)N[C@@H](Cc4ccccc4Cl)C(=O)N[C@@H](Cc4csc5ccccc45)C(=O)N[C@@H](CO)C(N)=O)(C3)NC(=O)[C@H](CC(C)C)NC(=O)[C@H](Cc3ccccc3)NC(=O)[C@H](C)NC(=O)[C@H](C)NC(=O)[C@H](CCC(=O)O)NC(=O)[C@H](CC(=O)O)NC1=O)NC(=O)[C@H](CC(C)(C)C)NC(=O)[C@H](CC(=O)O)NC2=O (some centres unmarked)"
experimental_endpoint = "Solubility"
observed_measurement = 10

[[record]]
compound = "CC(=O)N1CCC[C@]12CC=CCCCC1(CCCC=CCCCOC(=O)N3CC[C@@](C(=O)N[C@@H](Cc4ccsc4)C(=O)N[C@@H](Cc4csc5ccccc45)C(=O)N[C@@H](CO)C(N)=O)(C3)NC(=O)[C@H]([C@@H](C)O)NC(=O)[C@H](Cc3ccccc3)NC(=O)[C@H](C)NC(=O)[C@H](C)NC(=O)[C@H](CN(CC(=O)O)CC(F)(F)F)NC(=O)[C@H](CC(=O)O)NC1=O)NC(=O)[C@H](CC(C)(C)C)NC(=O)[C@H](CC(=O)O)NC2=O (some centres unmarked) [I-956]"
experimental_endpoint = "Solubility"
observed_measurement = 46

[[record]]
compound = "CC(=O)N1CCC[C@]12CC=CCCCC1(CCCC=CCCCOC(=O)N3CC[C@@](C(=O)N[C@@H](Cc4ccsc4)C(=O)N[C@@H](Cc4csc5ccccc45)C(=O)N[C@@H](Cc4c[nH]cn4)C(N)=O)(C3)NC(=O)[C@H](CC(N)=O)NC(=O)[C@H](Cc3ccccc3)NC(=O)[C@H](C)NC(=O)[C@H](C)NC(=O)[C@H](CC(=O)O)NC(=O)[C@H](CC(=O)O)NC1=O)NC(=O)[C@H](CC(C)(C)C)NC(=O)[C@H](CC(=O)O)NC2=O (some centres unmarked)"
experimental_endpoint = "Solubility"
observed_measurement = 40

[[record]]
compound = "CC(=O)N1CCC[C@]12CC=CCCCC1(CCCC=CCCCCCC[C@@](C)(C(=O)N[C@@H](Cc3ccccc3Cl)C(=O)N[C@@H](Cc3csc4ccccc34)C(=O)N[C@@H](CO)C(N)=O)NC(=O)[C@H](CC(C)C)NC(=O)[C@H](Cc3ccccc3)NC(=O)[C@H](C)NC(=O)[C@H](C)NC(=O)[C@H](CC(=O)O)NC(=O)[C@H](CC(=O)O)NC1=O)NC(=O)[C@H](CC(C)(C)C)NC(=O)[C@H](CC(=O)O)NC2=O (some centres unmarked)"
experimental_endpoint = "Solubility"
observed_measurement = 10


Kindly review the next compound as well.
Q: Quick one: Solubility for CC(=O)N1CCC[C@]12CC=CCCCC1(CCCC=CCCCCCC[C@@](C)(C(=O)N[C@@H](Cc3ccccc3Cl)C(=O)N[C@@H](Cc3csc4ccccc34)C(=O)N[C@@H](CCO)C(N)=O)NC(=O)[C@H](CO)NC(=O)[C@H](Cc3ccccc3)NC(=O)[C@H](C)NC(=O)[C@H](C)NC(=O)[C@H](CN(CC(=O)O)CC(F)(F)F)NC(=O)[C@H](CC(=O)O)NC1=O)NC(=O)[C@H](CC(C)(C)C)NC(=O)[C@H](CC(=O)O)NC2=O (some centres unmarked) [I-998] ?
Ans: 43

====

Provide the recorded pIC50 for the entries that follow.
molecular target: full-length beta-Catenin (Uniprot ID P35222) (Homo sapiens, UniProt P35222); construct: 10 nM full-length beta-Catenin (Uniprot ID P35222); test: Fluorescence polarization IC50 (beta-catenin / 5FAM-TCF4 10-53 competition); format: binding; details: fluorescence polarization, beta-catenin; read-out: FP EC50
Numbers only, as −log10 of the molar value.

[[record]]
compound = "CC(=O)N1CCC[C@]12CC=CCCCC1(CCCC=CCCCCCC[C@@](C)(C(=O)N[C@@H](Cc3ccsc3)C(=O)N[C@@H](Cc3csc4ccccc34)C(=O)N[C@@H](CCC(N)=O)C(N)=O)NC(=O)[C@H](CC(N)=O)NC(=O)[C@H](Cc3ccccc3)NC(=O)[C@H](C)NC(=O)[C@H](C)NC(=O)[C@H](CN(CC(=O)O)C(C)C)NC(=O)[C@H](CC(=O)O)NC1=O)NC(=O)[C@H](CC(C)(C)C)NC(=O)[C@H](CC(=O)O)NC2=O (some centres unmarked) [I-1452]"
experimental_endpoint = "pIC50"
observed_measurement = 7.18


Kindly review the next compound as well.
Q: Quick one: pIC50 for CC[C@H](C)[C@@H]1NC(=O)[C@H](CC(=O)O)NC(=O)[C@]2(CC=CCCCC3(CCCC=CCCCCCC[C@@](C)(C(=O)N[C@@H](Cc4ccccc4)C(=O)N[C@@H](Cc4c[nH]c5ccccc45)C(=O)N[C@@H](CCC(N)=O)C(N)=O)NC(=O)[C@H](CCC(N)=O)NC(=O)[C@H](Cc4ccccc4)NC(=O)[C@H](C)NC(=O)[C@H](C)NC(=O)[C@H](CCC(=O)O)NC(=O)[C@H](CC(=O)O)NC3=O)NC1=O)CCCN2C(C)=O (some centres unmarked) ?
Ans: 6.51

====

assay: Solubility in PBS; type: physicochemical
experimental_endpoint: Solubility (µM)
One number for each entry, in µM.

Example entries and their recorded answers appear below.
[[record]]
compound = "CC(=O)N1CCC[C@]12CC=CCCCC1(CCCC=CCCCCCC[C@@](C)(C(=O)N[C@@H](Cc3ccsc3)C(=O)N[C@@H](Cc3csc4ccccc34)C(=O)N[C@@H](CCC(N)=O)C(N)=O)NC(=O)[C@H](CC(N)=O)NC(=O)[C@H](Cc3ccccc3)NC(=O)[C@H](C)NC(=O)[C@H](C)NC(=O)[C@H](CN(CC(=O)O)CC(F)(F)F)NC(=O)[C@H](CC(=O)O)NC1=O)NC(=O)[C@H](CC1CCCCC1)NC(=O)[C@H](CC(=O)O)NC2=O (stereo partly drawn) [I-707]"
experimental_endpoint = "Solubility"
observed_measurement = 48

[[record]]
compound = "CC[C@H](C)[C@@H]1NC(=O)[C@H](CC(=O)O)NC(=O)[C@]2(CC=CCCCC3(CCCC=CCCCCCC[C@@](C)(C(=O)N[C@@H](Cc4ccccc4)C(=O)N[C@@H](Cc4csc5ccccc45)C(=O)N[C@@H](CCC(N)=O)C(N)=O)NC(=O)[C@H](CCC(N)=O)NC(=O)[C@H](Cc4ccccc4)NC(=O)[C@H](C)NC(=O)[C@H](C)NC(=O)[C@H](CCC(=O)O)NC(=O)[C@H](CC(=O)O)NC3=O)NC1=O)CCCN2S(C)(=O)=O (stereo partly drawn) [I-711]"
experimental_endpoint = "Solubility"
observed_measurement = 48


Q: Quick one: Solubility for CC(=O)N1CCC[C@]12CC=CCCCC1(CCCC=CCCCCOC(=O)N3CC[C@@](C(=O)N[C@@H](Cc4ccsc4)C(=O)N[C@@H](Cc4csc5ccccc45)C(=O)N[C@@H](CCC(N)=O)C(N)=O)(C3)NC(=O)[C@H](CC(N)=O)NC(=O)[C@H](Cc3ccccc3)NC(=O)[C@H](C)NC(=O)[C@H](C)NC(=O)[C@H](CC(=O)O)NC(=O)[C@H](CC(=O)O)NC1=O)NC(=O)[C@H](CC(C)(C)C)NC(=O)[C@H](CC(=O)O)NC2=O (stereo partly drawn) ?
Ans: 50

====

Target: beta-catenin/TCF4 engagement (Homo sapiens)
Construct: expressed in transfected cells; host or cells: HEK293
Sequence (P35222 1-781): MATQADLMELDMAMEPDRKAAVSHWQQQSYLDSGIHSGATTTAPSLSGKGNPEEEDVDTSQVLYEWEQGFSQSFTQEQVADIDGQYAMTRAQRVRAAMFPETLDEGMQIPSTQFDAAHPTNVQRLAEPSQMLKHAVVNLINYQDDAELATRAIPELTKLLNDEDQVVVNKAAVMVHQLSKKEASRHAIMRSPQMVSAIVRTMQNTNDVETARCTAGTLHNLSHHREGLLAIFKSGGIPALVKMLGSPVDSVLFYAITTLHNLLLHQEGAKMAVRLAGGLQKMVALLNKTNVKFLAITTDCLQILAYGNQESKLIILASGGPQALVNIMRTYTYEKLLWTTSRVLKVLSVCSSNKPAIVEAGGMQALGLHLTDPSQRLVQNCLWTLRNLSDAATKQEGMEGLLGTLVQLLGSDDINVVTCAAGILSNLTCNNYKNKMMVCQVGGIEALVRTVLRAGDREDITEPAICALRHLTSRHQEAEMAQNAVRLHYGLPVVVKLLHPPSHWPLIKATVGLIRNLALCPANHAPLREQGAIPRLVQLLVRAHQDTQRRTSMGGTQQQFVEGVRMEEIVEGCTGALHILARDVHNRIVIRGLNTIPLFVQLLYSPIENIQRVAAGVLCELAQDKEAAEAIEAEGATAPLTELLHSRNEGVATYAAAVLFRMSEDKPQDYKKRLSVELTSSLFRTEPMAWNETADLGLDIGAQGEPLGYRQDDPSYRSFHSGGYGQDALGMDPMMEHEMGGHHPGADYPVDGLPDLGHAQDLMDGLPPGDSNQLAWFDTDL
Assay: Nano-BRET target engagement assay (B-cat-Halo & TCF4-Luc in HEK293 cells)
Format: cell-based
Settings: absolute IC50; read-out: NanoBRET Abs IC50
experimental_endpoint: IC50 (µM)
Numbers only, in µM.

Q: Quick one: IC50 for CC(=O)N1CCC[C@]12CC=CCCCC1(CCCC=CCCCOC(=O)N3CC[C@@](C(=O)N[C@@H](Cc4ccccc4C(F)(F)F)C(=O)N[C@@H](Cc4csc5ccccc45)C(=O)N[C@@H](CCC(N)=O)C(N)=O)(C3)NC(=O)[C@H](CC(C)C)NC(=O)[C@H](Cc3ccccc3)NC(=O)[C@H](C)NC(=O)[C@H](C)NC(=O)[C@H](Cc3cc(C(=O)O)cc(C(C)C)c3)NC(=O)[C@H](CC(=O)O)NC1=O)NC(=O)[C@H](CC(C)(C)C)NC(=O)[C@H](CC(=O)O)NC2=O (stereo partly shown) ?
Ans: 4.5
